Tested on: HeLa
Assay: Cytotoxicity towards HeLa cells was determined
Assay type: functional, cell-based
Conditions: Homo sapiens
pIC50: −log10 of the molar value.
READOUT: pIC50

pIC50 measured on COc1cccc2[nH]c3c(c12)CC(NC(=O)Nc1c(C(C)C)cccc1C(C)C)(C(=O)NCC1(c2ccccn2)CCCCC1)CC3 (single isomer, unassigned; (+)) = < 4.30

---

Documented pIC50 across a set of molecules
Biological target: Neuromedin-B receptor (Homo sapiens)
Experiment: Affinity of [125I][D-Tyr0]-NMB to human Neuromedin B receptor expressed in HEK293 cells
# log scale: pIC50 equals minus log10 of the concentration in mol/L

                                   molecule  recorded_measurement
0  CC(C)c1cccc(C(C)C)c1NC(=O)NC1(C(=O)NCC2(c3ccccn3)CCCCC2)CCc2[nH]c3cc(Br)ccc3c2C1 (stereo not given)                  5.67
1  O=C(Nc1ccc(OC(F)(F)F)cc1)NC1(C(=O)NCC2(c3ccccn3)CCCCC2)CCc2[nH]c3ccccc3c2C1 (stereo not given)                  5.52

Consider CC(C)(CNC(=O)C1(NC(=O)Nc2ccc([N+](=O)[O-])cc2)CCc2[nH]c3ccccc3c2C1)c1ccccn1 (stereo not given) . Its measured pIC50 is 5.00

For COc1cccc2[nH]c3c(c12)CC(NC(=O)Nc1c(C(C)C)cccc1C(C)C)(C(=O)NCC1(c2ccccn2)CCCCC1)CC3 (single isomer, unassigned; (+)) the molecule record lists pIC50 as 7.54

Lab note: CC(C)c1cccc(C(C)C)c1NC(=O)NC1(C(=O)NCC2(c3ccccn3)CC2)CCc2[nH]c3ccccc3c2C1 (stereo not given) gave pIC50 of 5.47

Lab book: pIC50 of CC(C)c1cccc(C(C)C)c1NC(=O)NC1(C(=O)NCC2(c3ccccn3)CCCCC2)CCc2[nH]c3cccc(OC(F)(F)F)c3c2C1 (stereo not given) noted as 5.72

pIC50 reported for this molecule Cc1cccc2[nH]c3c(c12)CC(NC(=O)Nc1c(C(C)C)cccc1C(C)C)(C(=O)NCC1(c2ccccn2)CCCCC1)CC3 (stereo not given) : 6.18

response.value for CC(C)c1cccc(C(C)C)c1NC(=O)NC1(C(=O)NCC2(c3ccccn3)CCCCC2)CCc2[nH]c3ccccc3c2C1 (stereo not given) (field: pIC50) = 6.49

---

Attribute: pIC50
Biological target: Neuromedin-B receptor (Homo sapiens, UniProt P28336)
Sequence (P28336 whole entry): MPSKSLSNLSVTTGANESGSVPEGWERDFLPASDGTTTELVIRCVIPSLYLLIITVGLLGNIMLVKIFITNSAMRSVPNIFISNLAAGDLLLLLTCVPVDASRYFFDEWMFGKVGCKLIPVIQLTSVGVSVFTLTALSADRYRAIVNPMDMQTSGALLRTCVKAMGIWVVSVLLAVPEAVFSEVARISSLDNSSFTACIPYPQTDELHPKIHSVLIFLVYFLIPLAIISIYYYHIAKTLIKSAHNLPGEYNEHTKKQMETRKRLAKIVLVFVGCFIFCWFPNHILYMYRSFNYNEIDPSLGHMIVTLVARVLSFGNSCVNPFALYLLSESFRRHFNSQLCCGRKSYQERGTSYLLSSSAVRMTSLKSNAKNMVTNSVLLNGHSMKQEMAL
Test: Affinity of [125I][D-Tyr0]-NMB to human Neuromedin B receptor expressed in HEK293 cells
The scale used: pIC50 is minus the common logarithm of the concentration in molar units.

Look over these answered cases.
>>> print(df.to_string())
                                   molecule  recorded_measurement
0  CC(C)c1cccc(C(C)C)c1NC(=O)NC1(C(=O)NCC2(c3ccccn3)CCCCC2)CCc2[nH]c3cc(F)ccc3c2C1F (configuration not stated)                  6.00
1  Cc1cccc(C)c1NC(=O)NC1(C(=O)NCC2(c3ccccn3)CCCCC2)CCc2[nH]c3ccccc3c2C1 (configuration not stated)                  5.26
2  Cc1ccc2[nH]c3c(c2c1)C(C)C(NC(=O)Nc1c(C(C)C)cccc1C(C)C)(C(=O)NCC1(c2ccccn2)CCCCC1)CC3 (stereo in doubt; 22)                  6.15
3  COc1cccc2[nH]c3c(c12)CC(NC(=O)Nc1c(C(C)C)cccc1C(C)C)(C(=O)NCC1(c2ccccn2)CCCCC1)CC3 (stereo in doubt; 20)                  6.60
4  O=C(NC1CCCCC1)NC1(C(=O)NCC2(c3ccccn3)CCCCC2)CCc2[nH]c3ccccc3c2C1 (configuration not stated)                  5.41

What the record says about CC(C)c1cccc(C(C)C)c1NC(=O)NC1(C(=O)NCC(C)(C)c2ccccn2)CCc2[nH]c3ccccc3c2C1 (configuration not stated) : pIC50 is 5.38

The recorded pIC50 for O=C(Nc1ccc(C(F)(F)F)cc1)NC1(C(=O)NCC2(c3ccccn3)CCCCC2)CCc2[nH]c3ccccc3c2C1 (configuration not stated) is 5.95

The molecule identified as O=C(Nc1ccc([N+](=O)[O-])cc1)NC1(C(=O)NCC2(c3ccccn3)CCCCC2)CCc2[nH]c3ccccc3c2C1 (configuration not stated) registered its pIC50 at 6.10

pIC50 in this record for CC(=O)c1cccc(NC(=O)NC2(C(=O)NCC3(c4ccccn4)CCCCC3)CCc3[nH]c4ccccc4c3C2)c1 (configuration not stated) : 5.64

The value of pIC50 measured for the molecule Cc1cc([N+](=O)[O-])ccc1NC(=O)NC1(C(=O)NCC2(c3ccccn3)CCCCC2)CCc2[nH]c3ccccc3c2C1 (configuration not stated) turned out to be 6.21

Record CC(C)c1cccc(C(C)C)c1NC(=O)N[C@@](C)(Cc1c[nH]c2ccccc12)C(=O)NCC1(c2ccccn2)CCCCC1 , field pIC50: 6.46

Field pIC50 (entry COc1ccccc1NC(=O)NC1(C(=O)NCC2(c3ccccn3)CCCCC2)CCc2[nH]c3ccccc3c2C1 (configuration not stated) ) reads 5.06
